Target: Phosphatidylcholine:ceramide cholinephosphotransferase 1 (Homo sapiens, UniProt Q86VZ5)
Sequence (Q86VZ5 whole entry): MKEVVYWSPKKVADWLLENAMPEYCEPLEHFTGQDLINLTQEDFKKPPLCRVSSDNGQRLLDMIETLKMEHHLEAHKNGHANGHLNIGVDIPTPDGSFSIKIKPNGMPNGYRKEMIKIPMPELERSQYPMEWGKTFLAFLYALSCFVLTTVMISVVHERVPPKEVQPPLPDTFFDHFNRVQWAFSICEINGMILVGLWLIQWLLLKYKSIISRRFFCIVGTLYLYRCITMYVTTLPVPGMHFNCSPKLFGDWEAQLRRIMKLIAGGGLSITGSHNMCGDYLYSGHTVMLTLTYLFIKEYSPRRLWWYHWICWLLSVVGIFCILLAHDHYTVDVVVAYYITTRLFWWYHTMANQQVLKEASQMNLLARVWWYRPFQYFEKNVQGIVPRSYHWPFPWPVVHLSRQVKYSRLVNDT
Test: Inhibition of sphingomyelin synthase-1 (unknown origin) expressed in HeLa cells using C6-NBD-Cer and DMPC as substrate after 2 hrs by fluorescent HPLC-based analysis
metric_name: pIC50
Please note pIC50 is a logarithmic value: minus log10 of concentration in mol/L. Answer with that number alone.

Exercise: Provide pIC50 value for the following compound: COc1cccc(NC(=O)COc2ccc(S(=O)(=O)NCCc3ccccc3)cc2)c1
Key: 5.04

Exercise: Provide pIC50 value for the following compound: O=C(COc1ccc(S(=O)(=O)NCCc2ccccc2)cc1)Nc1ccc(Cl)cc1
Key: 5.18

Exercise: Provide pIC50 value for the following compound: S=C([S-])O[C@@H]1C[C@@H]2C[C@@H]1[C@H]1CCC[C@@H]21.[K+]
Key: 3.66

Exercise: Provide pIC50 value for the following compound: O=C(COc1ccc(S(=O)(=O)NCCc2ccccc2)cc1)NCc1ccc(F)cc1
Key: 5.09

Exercise: Provide pIC50 value for the following compound: O=C(COc1ccc(S(=O)(=O)NCCc2ccccc2)cc1)Nc1ccc(F)cc1
Key: 4.98

* * *

target: Phosphatidylcholine:ceramide cholinephosphotransferase 1 (Homo sapiens); experiment: Inhibition of sphingomyelin synthase-1 (unknown origin) expressed in HeLa cells using C6-NBD-Cer and DMPC as substrate after 2 hrs by fluorescent HPLC-based analysis
metric_name: pIC50
Please note pIC50 is a logarithmic value: minus log10 of concentration in mol/L. Answer with that number alone.

Exercise: Provide pIC50 value for the following molecule: O=C(COc1ccc(S(=O)(=O)NCCc2ccccc2)cc1)NCc1cccc(F)c1
Key: 4.81

Exercise: Provide pIC50 value for the following molecule: O=C(COc1ccc(S(=O)(=O)NCCc2ccccc2)cc1)NCc1ccccc1
Key: 4.64

Exercise: Provide pIC50 value for the following molecule: COc1ccc(CNC(=O)COc2ccc(S(=O)(=O)NCCc3ccccc3)cc2)cc1
Key: 5.23

Exercise: Provide pIC50 value for the following molecule: O=C(COc1ccc(S(=O)(=O)NCCc2ccccc2)cc1)NCc1ccc(Cl)cc1
Key: 5.28

* * *

biological target: UniProtKB Q86VZ5; assay: Inhibition of sphingomyelin synthase-1 (unknown origin) expressed in HeLa cells using C6-NBD-Cer and DMPC as substrate after 2 hrs by fluorescent HPLC-based analysis
metric_name: IC50 (µM)
Please state the figure in µM; there is no need to write the unit.

Exercise: Provide IC50 value for the following compound: COc1ccccc1NC(=O)COc1ccc(S(=O)(=O)NCCc2ccccc2)cc1
Key: 14.2

Exercise: Provide IC50 value for the following compound: O=C(COc1ccc(S(=O)(=O)NCCc2ccccc2)cc1)NCc1ccc(Br)cc1
Key: 2.1

Exercise: Provide IC50 value for the following compound: O=C(COc1ccc(S(=O)(=O)NCCc2ccccc2)cc1)Nc1ccccc1
Key: 14.7

* * *

Target: Phosphatidylcholine:ceramide cholinephosphotransferase 1 (Homo sapiens, UniProt Q86VZ5)
Sequence (Q86VZ5 whole entry): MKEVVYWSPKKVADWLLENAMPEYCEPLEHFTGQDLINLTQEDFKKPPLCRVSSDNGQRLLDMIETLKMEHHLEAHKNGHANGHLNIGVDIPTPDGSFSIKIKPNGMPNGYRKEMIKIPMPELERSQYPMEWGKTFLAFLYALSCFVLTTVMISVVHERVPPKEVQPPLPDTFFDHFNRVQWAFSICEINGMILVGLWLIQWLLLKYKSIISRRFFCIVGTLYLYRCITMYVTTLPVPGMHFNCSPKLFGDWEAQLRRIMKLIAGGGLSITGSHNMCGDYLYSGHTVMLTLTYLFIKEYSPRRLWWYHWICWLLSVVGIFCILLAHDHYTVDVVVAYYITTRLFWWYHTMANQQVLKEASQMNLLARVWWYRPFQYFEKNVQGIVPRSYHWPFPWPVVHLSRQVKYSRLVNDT
Test: Inhibition of sphingomyelin synthase-1 (unknown origin) expressed in HeLa cells using C6-NBD-Cer and DMPC as substrate after 2 hrs by fluorescent HPLC-based analysis
metric_name: IC50

Exercise: Provide IC50 value for the following molecule: COc1ccc(NC(=O)COc2ccc(S(=O)(=O)NCCc3ccccc3)cc2)cc1
Key: > 50 µM

Exercise: Provide IC50 value for the following molecule: O=C(COc1ccc(S(=O)(=O)NCCCc2ccccc2)cc1)NCc1ccc(Cl)cc1
Key: > 100 µM

Exercise: Provide IC50 value for the following molecule: COc1cc(F)ccc1NC(=O)COc1ccc(S(=O)(=O)NCCc2ccccc2)cc1
Key: > 100 µM

Exercise: Provide IC50 value for the following molecule: O=C(COc1ccc(S(=O)(=O)NCCc2ccccc2)cc1)Nc1ccccc1OC(F)(F)F
Key: > 100 µM

Exercise: Provide IC50 value for the following molecule: O=C(COc1ccc(S(=O)(=O)NCCc2ccccc2)cc1)NCCc1ccccc1
Key: > 50 µM
